Listing: pIC50 of selected compounds
# Assayed Target: PI3K delta (Homo sapiens (Human))
# Method Notes: Biochemical assay for PI3Kdelta (Adapta TR-FRET format)
# Measurement Setup: enzymatic assay
A value of pIC50 is the negative decimal logarithm of a concentration given in moles per litre.

Completed entries (count: 5):
INSERT INTO measurements (compound, endpoint_name, result_number) VALUES
  ('Cn1cc(-c2c(F)ccc3nc([C@@H]4CCCN4c4ncnc(N)c4C#N)n(-c4ccccc4)c(=O)c23)cn1 [Example 5]', 'pIC50', 8.40),
  ('CCOc1ncc(-c2c(F)ccc3nc([C@@H]4C[C@H](O)CN4c4nc(N)nc(C)c4C#N)n(-c4ccccc4)c(=O)c23)cn1 [Example 29]', 'pIC50', 8.40),
  ('Cc1nc(N)nc(N2CCC[C@H]2c2nc3ccc(F)c(-c4cnn(C)c4)c3c(=O)n2-c2ccccc2)c1C#N [Example 6]', 'pIC50', 8.05),
  ('Cc1nc(N)nc(N2C[C@@H](O)C[C@H]2c2nc3cccc(-c4cccnc4)c3c(=O)n2-c2ccccc2)c1C#N [Example 24]', 'pIC50', 8.30),
  ('CCOc1ncc(-c2cccc3nc([C@@H]4CCCN4c4nc(N)nc(C)c4C#N)n(-c4ccccc4)c(=O)c23)cn1 [Example 32]', 'pIC50', 8.30);

Turning now to a further record.
Fill blank: measured pIC50 of the compound N#Cc1c(N)ncnc1N1CCC[C@H]1c1nc2cccc(C#CCO)c2c(=O)n1-c1ccccc1 [Example 33] is ____. 7.89

###

# Assayed Target: human phosphoinositide-3 kinase (PI3K) delta (Homo sapiens (Human), UniProt O00329)
# Sequence (O00329 whole entry): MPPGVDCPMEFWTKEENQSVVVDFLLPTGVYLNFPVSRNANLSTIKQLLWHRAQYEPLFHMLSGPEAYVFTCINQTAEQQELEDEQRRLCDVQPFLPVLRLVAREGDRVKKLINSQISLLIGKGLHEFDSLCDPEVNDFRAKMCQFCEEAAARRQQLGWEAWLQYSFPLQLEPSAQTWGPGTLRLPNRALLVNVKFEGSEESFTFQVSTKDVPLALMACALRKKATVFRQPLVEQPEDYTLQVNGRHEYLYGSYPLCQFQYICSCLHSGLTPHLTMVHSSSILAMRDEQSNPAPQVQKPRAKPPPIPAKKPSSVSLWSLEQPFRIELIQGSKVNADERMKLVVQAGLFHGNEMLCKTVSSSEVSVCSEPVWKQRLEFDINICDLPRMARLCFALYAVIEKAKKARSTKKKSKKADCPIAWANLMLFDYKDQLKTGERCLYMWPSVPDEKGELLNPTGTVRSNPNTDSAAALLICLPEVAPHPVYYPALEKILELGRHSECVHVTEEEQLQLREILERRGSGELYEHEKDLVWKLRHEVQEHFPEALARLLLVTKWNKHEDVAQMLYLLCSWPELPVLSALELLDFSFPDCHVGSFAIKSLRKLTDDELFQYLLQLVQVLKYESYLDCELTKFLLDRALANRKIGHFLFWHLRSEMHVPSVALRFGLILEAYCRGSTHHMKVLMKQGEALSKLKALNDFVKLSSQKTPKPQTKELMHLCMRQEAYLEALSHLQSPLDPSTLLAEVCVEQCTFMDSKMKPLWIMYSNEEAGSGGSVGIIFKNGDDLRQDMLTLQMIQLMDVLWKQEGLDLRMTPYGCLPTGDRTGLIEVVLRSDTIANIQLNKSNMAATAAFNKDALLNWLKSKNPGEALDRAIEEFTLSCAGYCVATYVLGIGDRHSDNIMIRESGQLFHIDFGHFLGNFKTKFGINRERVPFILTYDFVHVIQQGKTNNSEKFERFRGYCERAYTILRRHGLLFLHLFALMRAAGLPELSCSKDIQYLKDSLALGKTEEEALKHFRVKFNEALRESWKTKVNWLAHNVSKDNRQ
# Sequence (Q63787 whole entry partner): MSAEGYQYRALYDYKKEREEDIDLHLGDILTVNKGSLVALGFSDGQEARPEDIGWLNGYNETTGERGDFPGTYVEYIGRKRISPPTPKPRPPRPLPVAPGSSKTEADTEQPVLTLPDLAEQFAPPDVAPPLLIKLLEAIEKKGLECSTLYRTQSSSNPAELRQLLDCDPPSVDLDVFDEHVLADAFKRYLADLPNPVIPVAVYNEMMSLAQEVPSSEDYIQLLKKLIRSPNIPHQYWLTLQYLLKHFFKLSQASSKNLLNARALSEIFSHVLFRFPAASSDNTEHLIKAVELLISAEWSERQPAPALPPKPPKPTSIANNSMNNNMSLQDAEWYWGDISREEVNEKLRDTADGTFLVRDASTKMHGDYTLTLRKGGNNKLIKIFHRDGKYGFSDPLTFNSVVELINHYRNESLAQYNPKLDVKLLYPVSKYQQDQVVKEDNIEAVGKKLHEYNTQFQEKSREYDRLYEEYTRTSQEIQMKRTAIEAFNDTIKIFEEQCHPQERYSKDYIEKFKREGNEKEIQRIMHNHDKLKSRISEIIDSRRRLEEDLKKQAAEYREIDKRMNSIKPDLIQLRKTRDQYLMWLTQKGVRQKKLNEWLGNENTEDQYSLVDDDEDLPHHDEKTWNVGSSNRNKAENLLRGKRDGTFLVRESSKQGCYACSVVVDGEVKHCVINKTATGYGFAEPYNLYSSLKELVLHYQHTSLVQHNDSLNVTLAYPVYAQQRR
# Method Notes: PI3K-mediated Akt 1/2 (S473) phosphorylation in Rat-1 cells overexpressing PI3K delta
# Measurement Setup: cellular assay, p-AKT(Ser473), read-out: Cell PI3K delta IC50
# Text: 2.1 Phosphoinositide-3 kinase (PI3K)-Mediated Akt 1/2 (S473) Phosphorylation in Rat-1 Cells […] For detection of p-AKT(Ser473), the SureFire® p-Akt 1/2 (Ser473) Assay Kit (PerkinElmer, U.S.A.) was used. […] The plate was read on an AlphaScreen® compatible plate reader, using standard AlphaScreen® settings. […]
Endpoint Name: pIC50
Reminder that pIC50 is minus the log10 of a molar concentration.

As a guide, the following entries are already answered.
INSERT INTO assay_data (structure, endpoint_name, result_number) VALUES
  ('CO[C@H]1C[C@@H](c2nc3cccc(-c4cnn(C)c4)c3c(=O)n2-c2ccccc2)N(c2nc(N)nc(C)c2C#N)C1', 'pIC50', 7.22),
  ('COc1ccc(-c2cccc3nc([C@@H]4C[C@H](O)CN4c4nc(N)nc(C)c4C#N)n(-c4ccccc4)c(=O)c23)cn1', 'pIC50', 8.22);

// next item, pIC50 requested
Param readout= pIC50; system= human phosphoinositide-3 kinase (PI3K) delta (Homo sapiens (Human), UniProt O00329); entry= "Cc1nc(N)nc(N2CCC[C@H]2c2nc3cccc(-c4cnn(C)c4)c3c(=O)n2-c2ccccc2)c1C#N" ; returns value. 7.92

###

# Assayed Target: human phosphoinositide-3 kinase (PI3K) delta (Homo sapiens (Human), UniProt O00329)
# Method Notes: PI3K-mediated Akt 1/2 (S473) phosphorylation in Rat-1 cells overexpressing PI3K delta
# Measurement Setup: cellular assay, p-AKT(Ser473), read-out: Cell PI3K delta IC50
Endpoint Name: pIC50
The meaning of pIC50 here: minus log10 of the concentration in molar units.

INSERT INTO measurements (compound, result_number) VALUES
  ('N#Cc1c(N)ncnc1N1CCC[C@H]1c1nc2cccc(C#CCO)c2c(=O)n1-c1ccccc1 [Example 33]', 7.85);

Field request: pIC50 | item: Cc1nc(N)nc(N2CCC[C@H]2c2nc3ccc(F)c(-c4cnn(C)c4)c3c(=O)n2-c2ccccc2)c1C#N [Example 6] 8.30

Entry COc1ncc(-c2cccc3nc([C@@H]4CCCN4c4ncnc(N)c4C#N)n(-c4ccccc4)c(=O)c23)cn1 [Example 3] has what pIC50? 7.96

Using the record for COc1ccc(-c2cccc3nc([C@@H]4CCCN4c4nc(N)nc(C)c4C#N)n(-c4ccccc4)c(=O)c23)cn1 [Example 21] , report its pIC50. 7.89

###

# Assayed Target: PI 3-Kinase Gamma (Homo sapiens (Human))
# Method Notes: Cellular U937 AKT assay for PI 3-kinase gamma
# Type: cell-based
# Measurement Setup: U937 cells, MIP1α-stimulated AKT phosphorylation, read-out: Cell PI3K gamma IC50
Endpoint Name: IC50 (µM)
Express the result in µM but write the number alone.

Some entries whose results are on file:
INSERT INTO measurements (compound, endpoint_name, result_number) VALUES
  ('Cc1nc(N)nc(N2CCC[C@H]2c2nc3cccc(-c4cccnc4)c3c(=O)n2-c2ccccc2)c1C#N [Example 20]', 'IC50', 0.27),
  ('Cc1ncc(-c2cccc3nc([C@@H]4C[C@H](O)CN4c4nc(N)nc(C)c4C#N)n(-c4ccccc4)c(=O)c23)cn1 [Example 23]', 'IC50', 0.011),
  ('COc1ncc(-c2cccc3nc([C@@H]4C[C@H](OC)CN4c4nc(N)nc(C)c4C#N)n(-c4ccccc4)c(=O)c23)cn1 [Example 12]', 'IC50', 0.12);

For the compound Cc1nc(N)nc(N2CCC[C@H]2c2nc3cccc(-c4cncnc4)c3c(=O)n2-c2ccccc2)c1C#N [Example 17] , what IC50 is on record? 0.29

Consider the compound shown here: Cc1nc(N)nc(N2C[C@@H](O)C[C@H]2c2nc3cccc(-c4cccnc4)c3c(=O)n2-c2ccccc2)c1C#N [Example 24] What is its recorded IC50? 0.009

Would you kindly share the measured IC50 for CO[C@H]1C[C@@H](c2nc3cccc(-c4cnn(C)c4)c3c(=O)n2-c2ccccc2)N(c2nc(N)nc3[nH]cnc23)C1 [Example 11] ? 0.34

###

The following are reported pIC50 results, target or system PI3K alpha (Homo sapiens (Human), UniProt P42336).
Friendly reminder that pIC50 comes from taking -log10 of the concentration in mol/L.

Below, 6 molecules whose answers are already recorded.
INSERT INTO results (molecule, endpoint_name, result_number) VALUES
  ('COc1ccc(-c2cccc3nc([C@@H]4C[C@H](O)CN4c4nc(N)nc(C)c4C#N)n(-c4ccccc4)c(=O)c23)cn1 [Example 27]', 'pIC50', 7.07),
  ('COc1ncc(-c2cccc3nc([C@@H]4CCCN4c4nc(N)nc(C)c4C#N)n(-c4ccccc4)c(=O)c23)cn1 [Example 4]', 'pIC50', 6.49),
  ('Cc1ncc(-c2cccc3nc([C@@H]4CCCN4c4nc(N)nc(C)c4C#N)n(-c4ccccc4)c(=O)c23)cn1 [Example 19]', 'pIC50', 6.09),
  ('CO[C@H]1C[C@@H](c2nc3cccc(-c4cnn(C)c4)c3c(=O)n2-c2ccccc2)N(c2nc(N)nc3[nH]cnc23)C1 [Example 11]', 'pIC50', 5.64),
  ('Cc1nc(N)nc(N2C[C@@H](O)C[C@H]2c2nc3cccc(-c4cnn(CCO)c4)c3c(=O)n2-c2ccccc2)c1C#N [Example 28]', 'pIC50', 6.62),
  ('COc1ncc(-c2c(F)ccc3nc([C@@H]4C[C@H](O)CN4c4nc(N)nc(C)c4C#N)n(-c4ccccc4)c(=O)c23)s1 [Example 9]', 'pIC50', 7.28);

Kindly state the measured pIC50 obtained for COc1ncc(-c2cccc3nc([C@@H]4CCCN4c4ncnc(N)c4C#N)n(-c4ccccc4)c(=O)c23)cn1 [Example 3] with PI3K alpha (Homo sapiens (Human), UniProt P42336). 5.85

###

# Assayed Target: PI3K delta (Homo sapiens (Human), UniProt O00329)
# Sequence (O00329 2-1044): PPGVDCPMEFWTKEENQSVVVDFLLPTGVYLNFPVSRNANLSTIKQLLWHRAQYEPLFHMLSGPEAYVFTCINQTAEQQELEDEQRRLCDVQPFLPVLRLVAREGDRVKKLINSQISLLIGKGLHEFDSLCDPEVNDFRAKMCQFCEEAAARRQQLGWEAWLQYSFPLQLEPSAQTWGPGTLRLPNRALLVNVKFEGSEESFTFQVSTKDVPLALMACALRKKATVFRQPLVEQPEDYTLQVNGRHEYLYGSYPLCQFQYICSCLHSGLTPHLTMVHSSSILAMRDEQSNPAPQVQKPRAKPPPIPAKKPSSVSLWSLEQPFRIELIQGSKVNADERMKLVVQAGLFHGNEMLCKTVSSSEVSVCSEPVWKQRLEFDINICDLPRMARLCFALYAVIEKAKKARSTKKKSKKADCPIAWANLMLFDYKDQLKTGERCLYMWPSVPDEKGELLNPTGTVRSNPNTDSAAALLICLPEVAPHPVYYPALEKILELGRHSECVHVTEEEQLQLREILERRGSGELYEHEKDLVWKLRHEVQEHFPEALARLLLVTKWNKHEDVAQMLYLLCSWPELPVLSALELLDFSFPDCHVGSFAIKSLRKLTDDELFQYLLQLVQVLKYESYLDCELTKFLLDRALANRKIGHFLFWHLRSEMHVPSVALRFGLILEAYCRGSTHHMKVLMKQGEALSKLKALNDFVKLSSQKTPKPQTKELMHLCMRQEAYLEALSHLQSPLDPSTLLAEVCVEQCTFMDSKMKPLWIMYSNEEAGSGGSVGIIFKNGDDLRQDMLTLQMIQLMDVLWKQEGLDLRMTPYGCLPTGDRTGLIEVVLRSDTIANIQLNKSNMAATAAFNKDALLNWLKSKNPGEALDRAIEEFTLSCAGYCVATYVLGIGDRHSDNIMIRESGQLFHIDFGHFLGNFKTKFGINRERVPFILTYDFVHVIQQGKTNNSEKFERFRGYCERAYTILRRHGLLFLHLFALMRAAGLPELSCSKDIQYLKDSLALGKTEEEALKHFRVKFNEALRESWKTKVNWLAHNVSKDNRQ
# Sequence (P27986 461-568 partner): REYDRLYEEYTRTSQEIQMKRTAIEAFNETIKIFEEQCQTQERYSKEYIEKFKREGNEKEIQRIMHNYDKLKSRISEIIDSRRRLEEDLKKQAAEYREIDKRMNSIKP
# Method Notes: Biochemical assay for PI3Kdelta (Adapta TR-FRET format)
# Measurement Setup: enzymatic assay
Endpoint Name: IC50 (nM)
Enter your answer as a number in nM; do not include the unit.

Examples with their reported IC50 follow.
INSERT INTO assay_data (structure, result_number) VALUES
  ('Cc1nc(N)nc(N2C[C@@H](O)C[C@H]2c2nc3cccc(-c4cnn(C)c4)c3c(=O)n2-c2ccccc2)c1C#N', 7),
  ('COc1ncc(-c2cccc3nc([C@@H]4CCCN4c4ncnc(N)c4C#N)n(-c4ccccc4)c(=O)c23)cn1', 8),
  ('Cc1nc(N)nc(N2C[C@@H](O)C[C@H]2c2nc3cccc(-c4cnn(CCO)c4)c3c(=O)n2-c2ccccc2)c1C#N', 10);

Field: next compound
Query (compound): "COc1ncc(-c2cccc3nc([C@@H]4CCCN4c4nc(N)nc(C)c4C#N)n(-c4ccccc4)c(=O)c23)cn1" ; field requested: IC50 6

###

# Assayed Target: PI 3-Kinase Gamma (Homo sapiens (Human), UniProt P48736)
# Sequence (P48736 whole entry): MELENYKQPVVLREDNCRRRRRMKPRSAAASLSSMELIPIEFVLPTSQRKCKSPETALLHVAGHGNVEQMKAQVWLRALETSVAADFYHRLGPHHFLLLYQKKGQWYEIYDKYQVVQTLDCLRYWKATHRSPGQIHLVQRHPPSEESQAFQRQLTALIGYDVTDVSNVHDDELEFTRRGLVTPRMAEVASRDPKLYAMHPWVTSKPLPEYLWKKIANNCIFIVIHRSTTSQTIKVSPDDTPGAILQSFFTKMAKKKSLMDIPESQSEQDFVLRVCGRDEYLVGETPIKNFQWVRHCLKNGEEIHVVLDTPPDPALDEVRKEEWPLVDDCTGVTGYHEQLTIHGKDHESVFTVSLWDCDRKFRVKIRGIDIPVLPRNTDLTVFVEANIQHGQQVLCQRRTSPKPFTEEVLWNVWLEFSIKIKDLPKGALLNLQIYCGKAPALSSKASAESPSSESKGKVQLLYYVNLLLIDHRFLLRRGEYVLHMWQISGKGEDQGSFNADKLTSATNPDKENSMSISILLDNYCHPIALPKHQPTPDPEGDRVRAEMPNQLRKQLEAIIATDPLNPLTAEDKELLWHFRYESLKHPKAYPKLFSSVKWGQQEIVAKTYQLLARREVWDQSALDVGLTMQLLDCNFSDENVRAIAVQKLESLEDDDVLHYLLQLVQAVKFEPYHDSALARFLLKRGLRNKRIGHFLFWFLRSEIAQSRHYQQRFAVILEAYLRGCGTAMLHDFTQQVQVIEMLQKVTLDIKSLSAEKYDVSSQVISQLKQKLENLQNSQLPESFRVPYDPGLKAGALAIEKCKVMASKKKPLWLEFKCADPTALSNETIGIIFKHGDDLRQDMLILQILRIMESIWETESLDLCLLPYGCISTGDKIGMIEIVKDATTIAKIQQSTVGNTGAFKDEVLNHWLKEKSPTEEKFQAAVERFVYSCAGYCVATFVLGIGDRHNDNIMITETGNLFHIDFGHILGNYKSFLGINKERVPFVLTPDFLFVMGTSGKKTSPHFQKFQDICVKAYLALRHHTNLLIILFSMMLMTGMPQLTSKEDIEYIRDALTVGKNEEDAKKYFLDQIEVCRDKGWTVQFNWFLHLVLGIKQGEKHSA
# Method Notes: Cellular U937 AKT assay for PI 3-kinase gamma
# Measurement Setup: U937 cells, MIP1α-stimulated AKT phosphorylation, read-out: Cell PI3K gamma IC50
# satisfied = IC50 below 100 nM (exclusive); not satisfied = IC50 at/above 100 nM

# count of solved cases: 3
INSERT INTO assay_data (structure, label_value) VALUES
  ('Cc1nc(N)nc(N2C[C@@H](O)C[C@H]2c2nc3ccc(F)c(-c4cn(C)cn4)c3c(=O)n2-c2ccccc2)c1C#N', 'not satisfied'),
  ('COc1ncc(-c2c(F)ccc3nc([C@@H]4C[C@H](O)CN4c4nc(N)nc(C)c4C#N)n(-c4ccccc4)c(=O)c23)s1', 'satisfied'),
  ('Cc1nc(N)nc(N2C[C@@H](O)C[C@H]2c2nc3ccc(F)c(-c4cnn(C)c4)c3c(=O)n2-c2ccccc2)c1C#N', 'satisfied');

# check: IC50 < 100 nM for "Cc1nc(N)nc(N2C[C@@H](O)C[C@H]2c2nc3cccc(-c4cnn(CCO)c4)c3c(=O)n2-c2ccccc2)c1C#N" not satisfied

Hello, is IC50 of the following compound strictly smaller than 100 nM? "CCOc1ncc(-c2cccc3nc([C@@H]4CCCN4c4nc(N)nc(C)c4C#N)n(-c4ccccc4)c(=O)c23)cn1" not satisfied

For "COc1ncc(-c2c(F)ccc3nc([C@@H]4C[C@H](O)CN4c4nc(N)nc(C)c4C#N)n(-c4ccccc4)c(=O)c23)cn1" , is the recorded IC50 below the cut-off of 100 nM? satisfied

Lab note: confirm whether the reported IC50 for this compound is below 100 nM, equality not counting. compound: "COc1cncc(-c2cccc3nc([C@@H]4C[C@H](O)CN4c4nc(N)nc(C)c4C#N)n(-c4ccccc4)c(=O)c23)c1" satisfied

Quick check: does "Cc1nc(N)nc(N2C[C@@H](O)C[C@H]2c2nc3cccc(-c4cncnc4)c3c(=O)n2-c2ccccc2)c1C#N" have IC50 under 100 nM? not satisfied
